So I've got a bunch of compounds here, and I need their GI50 values.
System: RXF 393
runDescription: NCI tumour cell line growth inhibition, 48 h
The source made the active and inactive calls. Cut-off read from the data, not from the text of the source: active = GI50 up to about 1.1 µM and inactive = higher.

What does the record list as GI50 for CC(Nc1ccc(S(=O)(=O)NC(=N)N)cc1)c1c2ccccc2nc2ccccc12 (stereo unspecified) ?
26.9 µM (inactive)

What does the record list as GI50 for CCOP(=O)(OCC)C(C#N)Cc1ccco1 (stereo unspecified) ?
> 10 µM (inactive)

What does the record list as GI50 for COC(=O)CCC(NC(=S)N/N=C/c1cccs1)C(=O)OC (stereo unspecified) ?
> 100 µM (inactive)

What does the record list as GI50 for Cc1c(-c2ccccc2)c(C#N)c2nnn(-c3ccc([N+](=O)[O-])cc3)c(=O)n12 ?
17.4 µM (inactive)

What does the record list as GI50 for O=C(C/C(=N/O)c1cc(-c2ccccc2)no1)c1ccccc1 ?
19.8 µM (inactive)

What does the record list as GI50 for C/C(=N\N)C(CN1CCOCC1)C(c1ccccc1)c1c(O)c2ccccc2oc1=O (stereo unspecified) ?
3.38 µM (inactive)

What does the record list as GI50 for COc1ccc(C2CC(c3ccc(NS(=O)(=O)c4cc([N+](=O)[O-])ccc4C)cc3)=NN2S(=O)(=O)c2cc([N+](=O)[O-])ccc2C)cc1 (stereo unspecified) ?
> 100 µM (inactive)

What does the record list as GI50 for CC1CCC2(OC1)OC1CC3C4CC=C5CC(OC6OC(CO)C(OC7OC(C)C(OC8OC(C)C(O)C(O)C8O)C(O)C7O)C(O)C6OC6OC(C)C(O)C(O)C6O)CCC5(C)C4CCC3(C)C1C2C (stereo unspecified) ?
0.583 µM (active)

What does the record list as GI50 for O=C1c2cc3c(cc2NC(c2ccccc2F)C1O)OCO3 (stereo unspecified) ?
22.4 µM (inactive)

What does the record list as GI50 for N#Cc1nc(COCCOCc2ccccc2)oc1N ?
> 100 µM (inactive)

What does the record list as GI50 for O=C1CCC2(CC1)SCCCS2 ?
> 100 µM (inactive)

----------
System: SK-MEL-2
runDescription: NCI tumour cell line growth inhibition, 48 h
The source made the active and inactive calls. Rule as the data show it: active = GI50 up to about 1.1 µM and inactive = higher.
measure: GI50

What does the record list as GI50 for c1ccc(CNC2CC(NCc3ccccn3)CC(NCc3ccccn3)C2)nc1 (centres undefined) ?
2.58 µM (inactive)

What does the record list as GI50 for COC(=O)NC1C(C)OC(OC2C/C=C(/C)C3C=CC4C(OC5CC(OC6CC(O)C(OC7CC(O)C(OC)C(C)O7)C(C)O6)C(O)C(C)O5)C(C)CC(C)C4C3(C)C(=O)C3=C(O)C4(CC(C)C(CO)=CC4/C=C\2C)OC3=O)CC1(C)[N+](=O)[O-] (centres undefined) ?
11.4 µM (inactive)

What does the record list as GI50 for CC(C)C(NC(=O)Oc1ccccc1)C(=O)NC1c2c(Br)sc(Br)c2C(=O)C1O (centres undefined) ?
7.33 µM (inactive)

What does the record list as GI50 for Cc1ccc2oc(=O)cc(CC(=O)O)c2c1 ?
> 100 µM (inactive)

What does the record list as GI50 for CC1=CCC([C@@](C)(O)CCCC(C)(C)N=C=S)CC1 (some centres undefined) ?
17.7 µM (inactive)

What does the record list as GI50 for O=C(c1c2c(cc3c1CC1(Cc4cc5c(cc4C1)CCCC5)C3)CCCC2)C(Br)Br ?
19.2 µM (inactive)

What does the record list as GI50 for C/C(=N/N)c1ccc2[nH]c3c(C)cc([N+](=O)[O-])c(C)c3c2c1 ?
11.3 µM (inactive)

What does the record list as GI50 for O=c1/c(=C/c2cccc([N+](=O)[O-])c2)sc2nc3ccccc3n12 ?
> 100 µM (inactive)

What does the record list as GI50 for COC1=C(C)C(=O)C2C(C1=O)C(c1ccc(OC)c(OC)c1)[C@H]2C (some centres undefined) ?
> 100 µM (inactive)

----------
So I've got a bunch of molecules here, and I need their GI50 values.
Test system: MOLT-4
runDescription: NCI tumour cell line growth inhibition, 48 h
Activity calls are given as the source filed them. Rule as the data show it: active = GI50 up to about 1.1 µM and inactive = higher.

What does the record list as GI50 for NNC(=O)C(=O)N/N=C1\CCC(=O)CC1C(=O)CCC(=O)Nc1ccc(Cl)cc1 (centres undefined) ?
> 100 µM (inactive)

What does the record list as GI50 for N#Cc1c(-c2ccc(Cl)c(Cl)c2)c(-c2ccc(Cl)c(Cl)c2)nn(CC(=O)O)c1=O ?
68.4 µM (inactive)

What does the record list as GI50 for COc1ccc(C2=C(N)c3ccccc3C2=O)cc1 ?
> 100 µM (inactive)

What does the record list as GI50 for COC1=C(C)C(=O)C2C(C1=O)C(c1ccc(OC)c(OC)c1)[C@H]2C (some centres undefined) ?
> 100 µM (inactive)

What does the record list as GI50 for CC12CC3CC/C(=N\O)C(C1)C3(N1CCOCC1)C/C2=N/O (centres undefined) ?
> 100 µM (inactive)

What does the record list as GI50 for Cc1ccnc(NS(=O)(=O)c2ccc(NC(=O)c3ccc4nc5ccccc5c(Nc5ccc(S(=O)(=O)Nc6nccc(C)n6)cc5)c4c3)cc2)n1 ?
39.9 µM (inactive)

What does the record list as GI50 for O=[N+]([O-])c1cc2ccc1OCc1cccc(n1)COc1ccc(cc1[N+](=O)[O-])/C=N\CCCCCCCC/N=C\2 ?
> 100 µM (inactive)

What does the record list as GI50 for CC1=CCC([C@@](C)(O)CCCC(C)(C)N=C=S)CC1 (some centres undefined) ?
21.5 µM (inactive)

What does the record list as GI50 for S=P1(Sc2ccccc2)Oc2ccc3ccccc3c2-c2c(ccc3ccccc23)O1 ?
> 82.6 µM (inactive)

----------
System: SR
runDescription: NCI tumour cell line growth inhibition, 48 h
Activity calls are given as the source filed them. Rule as the data show it: active = GI50 up to about 1.1 µM and inactive = higher.
Return exactly one item of active, inactive

For O=c1c(-c2ccccc2)nnc2n(Cc3ccccc3)c3ccccc3n12 , which call appears in the assay record?
inactive

For NS(=O)(=O)c1nnc(NC(=O)Nc2ccc(Cl)c(Cl)c2)s1 , which call appears in the assay record?
inactive

For Nc1nc2c(c(-c3ccccc3Cl)n1)COC/C2=C\c1ccccc1Cl , which call appears in the assay record?
inactive

For C/C(=N\N)C(CN1CCOCC1)C(c1ccccc1)c1c(O)c2ccccc2oc1=O (stereo not given) , which call appears in the assay record?
inactive

For Nc1ccc(C2SCC(=O)N2NS(=O)(=O)c2cccc(C(=O)O)c2)cc1 (stereo not given) , which call appears in the assay record?
inactive

For CN(C)/C=[N+]1/[C@@H](Cc2ccccc2)C(=O)O[B-]1(F)c1ccccc1 (stereo not given in full) , which call appears in the assay record?
inactive

For COc1cc2c(cc1OC)C(C1CC1)ON(C)CC2 (stereo not given) , which call appears in the assay record?
inactive

For O=C1CC(c2cccc(Cl)c2)Nc2ccc(N3CCCC3)cc21 (stereo not given) , which call appears in the assay record?
active

For COc1ccc2cc1Oc1ccc(cc1)CC1c3c(cc(OC)c4c3Oc3cc5c(cc3O4)CCNC5C2)CCN1C (stereo not given) , which call appears in the assay record?
active

For Cc1nn(C(=O)c2ccccc2O)c2c1C(c1ccc(O)cc1)SC(=N)N2 (stereo not given) , which call appears in the assay record?
inactive

----------
Test system: Hs-578T
runDescription: NCI tumour cell line growth inhibition, 48 h
Calls of active or inactive are those of the source. Cut-off read from the data, not from the text of the source: active = GI50 up to about 1.1 µM and inactive = higher.
Return exactly one item of active, inactive

For CON(C(=O)OC(C)(C)C)c1ccccc1 , which call appears in the assay record?
inactive

For Cc1ccnc(NS(=O)(=O)c2ccc(NC(=O)c3ccc4nc5ccccc5c(Nc5ccc(S(=O)(=O)Nc6nccc(C)n6)cc5)c4c3)cc2)n1 , which call appears in the assay record?
inactive

For COc1ccc(/C=C2/C(C)=NN(c3cccc(Cl)c3)/C2=N/c2nc3ccccc3s2)cc1 , which call appears in the assay record?
inactive

For O=C(C1OC1c1ccc(Cl)cc1)C12CC3CC(CC(C3)C1)C2 (stereo unspecified) , which call appears in the assay record?
inactive

For c1ccc2c(c1)nc1n2CNC1 , which call appears in the assay record?
inactive

For CCOC(=O)C(c1c[nH]c2ccccc12)(c1c[nH]c2ccccc12)c1c[nH]c2ccccc12 , which call appears in the assay record?
inactive

For CC1CCC2(OC1)OC1CC3C4CC=C5CC(OC6OC(CO)C(OC7OC(C)C(OC8OC(C)C(O)C(O)C8O)C(O)C7O)C(O)C6OC6OC(C)C(O)C(O)C6O)CCC5(C)C4CCC3(C)C1C2C (stereo unspecified) , which call appears in the assay record?
active

For O=c1[nH]c2ccc([N+](=O)[O-])c(Cl)c2c2ccccc12 , which call appears in the assay record?
inactive

For OCCn1cnc2c(SCc3ccccc3)ncnc21 , which call appears in the assay record?
inactive

For CC1(CO)COC(C)(C)OC1 , which call appears in the assay record?
inactive

For CCN(CC)CCNC(=O)c1ccc(I)cc1 , which call appears in the assay record?
inactive
